Tested on: Rhizoctonia solani
Assay: Antifungal activity against Rhizoctonia solani Nees assessed as inhibition of fungal growth
Format: functional
Settings: read-out: ED50 (the source's name)
Cut-off 200 µg/mL on EC50: below means Met, at or above means Not met.

[
  {
    "Compound": "CCCCc1cc(C)cc(=O)o1",
    "Discrete Label": "Met"
  },
  {
    "Compound": "Cc1cc(CCl)oc(=O)c1",
    "Discrete Label": "Met"
  },
  {
    "Compound": "Cc1cc(C)oc(=O)c1",
    "Discrete Label": "Not met"
  },
  {
    "Compound": "CCCCCCCc1cc(C)cc(=O)o1",
    "Discrete Label": "Met"
  },
  {
    "Compound": "CCCc1cc(C)cc(=O)o1",
    "Discrete Label": "Met"
  },
  {
    "Compound": "CCCCCCCCCc1cc(C)cc(=O)o1",
    "Discrete Label": "Met"
  },
  {
    "Compound": "CCc1cc(C)cc(=O)o1",
    "Discrete Label": "Not met"
  },
  {
    "Compound": "Cc1cc(C(C)C)oc(=O)c1",
    "Discrete Label": "Not met"
  },
  {
    "Compound": "CCCCCCc1cc(C)cc(=O)o1",
    "Discrete Label": "Met"
  },
  {
    "Compound": "CCCCC(O)(Cn1cncn1)c1ccc(Cl)cc1Cl (stereo not given)",
    "Discrete Label": "Met"
  },
  {
    "Compound": "CCCCC(CC)c1cc(C)cc(=O)o1 (stereo not given)",
    "Discrete Label": "Met"
  },
  {
    "Compound": "CCCCCc1cc(C)cc(=O)o1",
    "Discrete Label": "Met"
  },
  {
    "Compound": "CCCCCCCCc1cc(C)cc(=O)o1",
    "Discrete Label": "Met"
  },
  {
    "Compound": "CC(C)=Cc1cc(C)cc(=O)o1",
    "Discrete Label": "Not met"
  }
]
